// reported Jurkat chemotaxis (% of control IgG4) at 10 µg/mL for each item listed
Molecular target: T1, human CD81 on CD81-expressing cells (Jurkat E6.1, human PBMC, Ramos) (human, UniProt P60033 1-236)
T1 sequence: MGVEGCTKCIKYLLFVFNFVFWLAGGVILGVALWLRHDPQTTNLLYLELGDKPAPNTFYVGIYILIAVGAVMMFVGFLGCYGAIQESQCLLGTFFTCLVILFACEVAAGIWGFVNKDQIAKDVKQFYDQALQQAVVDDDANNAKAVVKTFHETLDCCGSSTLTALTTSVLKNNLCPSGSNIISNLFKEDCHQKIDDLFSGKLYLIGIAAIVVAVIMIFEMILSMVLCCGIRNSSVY
Experiment: cell-based or functional assay
QUANTITY_MEASURED: Jurkat chemotaxis (% of control IgG4) at 10 µg/mL (%)

BINDER	OUTPUT_UNIT	REPORTED_MEASUREMENT
002-F07 (antibody, human IgG4 S228P, lambda, V domains shown, IgG4 S228P) VH: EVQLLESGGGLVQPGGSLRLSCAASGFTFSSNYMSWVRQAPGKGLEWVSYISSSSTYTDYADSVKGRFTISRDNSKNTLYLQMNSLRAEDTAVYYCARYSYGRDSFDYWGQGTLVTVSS VL: QSVLTQPFSASGTPGQRVTISCTGSTSNIGAGFDTHWYQQLPGTAPKLLIYGNSNRPSGVPDRFSGSKSGTTASLAISGLRSEDEADYYCQSYDTNLSVWVFGGGTKLTVLG	%	15
002-A07 S115N (antibody, human IgG4 S228P, lambda, V domains shown, IgG4 S228P; glycosylation site mutant of 002-A07 VL) VH: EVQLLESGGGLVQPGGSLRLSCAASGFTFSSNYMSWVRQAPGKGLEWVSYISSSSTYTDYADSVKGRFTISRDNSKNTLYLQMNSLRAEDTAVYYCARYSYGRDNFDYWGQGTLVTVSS VL: QSVLTQPPSASGTPGQRVTISCTGSTSNIGAGYDTHWYQQLPGTAPKLLIYGNSNRPSGVPDRFSGSKSGTSASLAISGLRSEDEADYYCQSYDTNLNVWVFGGGTKLTVLG	%	-9
003-D07 (antibody, human IgG4 S228P, lambda, V domains shown, IgG4 S228P) VH: EVQLLESGGGLVQPGGSLRLSCAASGFTFSSNYMSWVRQAPGKGLEWVSYISSSSTYTDYADSVKGRFTISRDNSKNTLYLQMNSLRAEDTAVYYCARYSYDRDNFDYWGQGTLVTVSS VL: QSVLTQPFSASGTPGQRVTISCTGSTSNIGAGYDTHWYQHLPGTAPKLLIYGNSNRPSGVPDRFSGSKSGTSASLAISGLRSEDEADYYCQSYDTNLSVWVFGGGTKLTVLG	%	-9
